- PROCEDURE TEXT: Plasma stability assay at 37 °C via LC-MS/MS, human plasma
- Format: in vitro ADME
- CONDITION DESCRIPTION: 3 µM, LC-MS/MS
PROPERTY: t1/2 in human plasma at 37 °C (Tables S10-S13, S18)

1) CNCCN(C)C(=O)O/N=C(\C)[C@H]1CC[C@H]2[C@@H]3CCC4=CC(=O)CC[C@]4(C)[C@H]3CC[C@]12C [20a] : 2.45 h
2) C/C(=N\OC(=O)N(C)C[C@@H]1CC(F)(F)CN1)[C@H]1CC[C@H]2[C@@H]3CCC4=CC(=O)CC[C@]4(C)[C@H]3CC[C@]12C [20r] : stable
3) C/C(=N\OC(=O)N(C)CC[C@@H]1CCCN1)[C@H]1CC[C@H]2[C@@H]3CCC4=CC(=O)CC[C@]4(C)[C@H]3CC[C@]12C.O=C(O)C(F)(F)F [20n] : stable

---

Examples of compounds with documented log10 half-life at 3 µM follow.
- PROCEDURE TEXT: PBS stability assay at 37 °C via LC-MS/MS
- Assay type: physicochemical
- CONDITION DESCRIPTION: phosphate-buffered saline (DPBS), pH 7.03, PBS, 37 °C; read-out: PBS, 37 °C t½ (Table S23) (converted)
PROPERTY: log10 half-life at 3 µM (log10 of the value in h)

1) CNCCN(C)C(=O)O/N=C(\C)[C@H]1CC[C@H]2[C@@H]3CCC4C[C@H](O)CC[C@]4(C)[C@H]3CC[C@]12C.O=C(O)C(F)(F)F (stereo partly shown) [21a] : 1.09
2) C/C(=N\OC(=O)N(CCN(C)C)CCN(C)C)[C@H]1CC[C@H]2[C@@H]3CCC4=CC(=O)CC[C@]4(C)[C@H]3CC[C@]12C [20y] : 0.27
3) CNCCN(C(=O)O/N=C(\C)[C@H]1CC[C@H]2[C@@H]3CCC4C[C@H](O)CC[C@]4(C)[C@H]3CC[C@]12C)C1CCC1.O=C(O)C(F)(F)F (stereo partly shown) [21d] : 0.23
4) C/C(=N\OC(=O)N(C)CC[C@@H]1CCCN1)[C@H]1CC[C@H]2[C@@H]3CCC4=CC(=O)CC[C@]4(C)[C@H]3CC[C@]12C.O=C(O)C(F)(F)F [20n] : 1.42
5) C/C(=N\OC(=O)N(CCO)CCNCCO)[C@H]1CC[C@H]2[C@@H]3CCC4=CC(=O)CC[C@]4(C)[C@H]3CC[C@]12C.Cl [20z] : 0.80
6) CNC1(CN(C)C(=O)O/N=C(\C)[C@H]2CC[C@H]3[C@@H]4CCC5=CC(=O)CC[C@]5(C)[C@H]4CC[C@]23C)CC1 [20s] : 1.27
7) C/C(=N\OC(=O)N(C)C[C@@H]1CCCN1)[C@H]1CC[C@H]2[C@@H]3CCC4C[C@H](O)CC[C@]4(C)[C@H]3CC[C@]12C (stereo partly shown) [21l] : -0.03

---

- PROCEDURE TEXT: Plasma stability assay at 37 °C via LC-MS/MS, human plasma;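 further: prodrugs at 3 µM incubated in human plasma at 37 °C, intact prodrug quantified by LC-MS/MS over time, values are means of duplicate runs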
- Assay type: in vitro ADME
- CONDITION DESCRIPTION: human, plasma, 3 µM, LC-MS/MS, read-out: t1/2 in human plasma at 37 °C (Tables S10-S13, S18) (converted)
PROPERTY: half-life at 3 µM (h)

1. CNCCN(C(=O)O/N=C(\C)[C@H]1CC[C@H]2[C@@H]3CCC4=CC(=O)CC[C@]4(C)[C@H]3CC[C@]12C)C(C)C.O=C(O)C(F)(F)F [20c] : 1.59
2. C/C(=N\OC(=O)N(C)C[C@@H]1C[C@H](N(C)C)CN1)[C@H]1CC[C@H]2[C@@H]3CCC4=CC(=O)CC[C@]4(C)[C@H]3CC[C@]12C [20u] : 0.74
3. CNCCN(CCCN1CCOCC1)C(=O)O/N=C(\C)[C@H]1CC[C@H]2[C@@H]3CCC4=CC(=O)CC[C@]4(C)[C@H]3CC[C@]12C.O=C(O)C(F)(F)F [20i] : 2.09
4. CNCCN(C(=O)O/N=C(\C)[C@H]1CC[C@H]2[C@@H]3CCC4=CC(=O)CC[C@]4(C)[C@H]3CC[C@]12C)C1CCCC1.O=C(O)C(F)(F)F [20e] : 4.02
5. CNCCN(CC(C)C)C(=O)O/N=C(\C)[C@H]1CC[C@H]2[C@@H]3CCC4=CC(=O)CC[C@]4(C)[C@H]3CC[C@]12C.O=C(O)C(F)(F)F [20f] : 4.78
6. CNCCN(CCn1ccnc1)C(=O)O/N=C(\C)[C@H]1CC[C@H]2[C@@H]3CCC4=CC(=O)CC[C@]4(C)[C@H]3CC[C@]12C [20k] : 3.16
7. CNCCN(C(=O)O/N=C(\C)[C@H]1CC[C@H]2[C@@H]3CCC4=CC(=O)CC[C@]4(C)[C@H]3CC[C@]12C)C1CCC1.O=C(O)C(F)(F)F [20d] : 2.67
8. C/C(=N\OC(=O)N(C)C[C@H]1CCCN1)[C@H]1CC[C@H]2[C@@H]3CCC4=CC(=O)CC[C@]4(C)[C@H]3CC[C@]12C.O=C(O)C(F)(F)F [20m] : 0.35
9. C/C(=N\OC(=O)N(CCN(C)C)CCN(C)C)[C@H]1CC[C@H]2[C@@H]3CCC4=CC(=O)CC[C@]4(C)[C@H]3CC[C@]12C [20y] : 8.88
10. C/C(=N\OC(=O)N(C)C[C@@H]1CCCN1)[C@H]1CC[C@H]2[C@@H]3CCC4=CC(=O)CC[C@]4(C)[C@H]3CC[C@]12C.O=C(O)C(F)(F)F [20l] : 0.31
11. C/C(=N\OC(=O)N(C)C[C@@H]1CC2(CC2)CN1)[C@H]1CC[C@H]2[C@@H]3CCC4=CC(=O)CC[C@]4(C)[C@H]3CC[C@]12C [20q] : 0.65
12. CNCCN(C(=O)O/N=C(\C)[C@H]1CC[C@H]2[C@@H]3CCC4=CC(=O)CC[C@]4(C)[C@H]3CC[C@]12C)C1CC1.O=C(O)C(F)(F)F [20b] : 1.27
